# Target Or Test System: S. pyogenes SKKanGAS, kanamycin survival, BacTiterGlo, 6 h
# Test Summary: S. pyogenes SKKanGAS kanamycin growth inhibitors – SKKanGAS strain, luminescence, dose confirmation, streptokinase promoter inhibitor project, dose response (AID 1902);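 further: lower survival reflects blocked streptokinase promoter driving kanamycin resistance gene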
Activity calls are given as the source filed them.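 How the source made its calls: active means EC50 no more than a set limit of log units above the highest dose; inactive means the rest.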
Outcome field: choose from yes (1) = active, no (0) = inactive

A selection of reference data follows.
- CCC(=O)N1N=C(c2c(O)n(CCc3ccccc3)c(=O)[nH]c2=O)CC1c1ccc(OC)c(OC)c1 (stereo not given): yes (1)
- Oc1ccc(COCc2ccccc2)c2cccnc12: yes (1)

Hi team, can someone confirm the assay call for O=c1[nH]c2cc3c(cc2cc1CN(CCc1ccccc1)Cc1nnnn1CC1CCCO1)OCO3 (stereo not given) ?
no (0)

What do we get for O=C(NNC1=Nc2cccc3cccc1c23)c1ccc(Br)cc1 ?
yes (1)

What do we get for O=C(/C=C/c1ccccc1)NC(NC(=S)Nc1cccc(Cl)c1)C(Cl)(Cl)Cl (stereo not given) ?
yes (1)

What do we get for CCOc1ccc(NC(=S)NNC(=S)Nc2cccc(C(F)(F)F)c2)cc1 ?
no (0)

====

# Target Or Test System: S. pyogenes SKKanGAS, kanamycin survival, BacTiterGlo, 6 h
# Test Summary: S. pyogenes SKKanGAS kanamycin growth inhibitors – SKKanGAS strain, luminescence, dose confirmation, streptokinase promoter inhibitor project, dose response (AID 1902);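 further: lower survival reflects blocked streptokinase promoter driving kanamycin resistance gene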
// EC50 lookup, one value per entry

* COc1cc([N+](=O)[O-])cc(/C=N/NC(=O)c2cccnc2)c1O | 2.64 µM

Turning to the following compound.
Param item = c1ccc(CCNc2nc(-c3ccccn3)cs2)cc1 ; retrieve measured EC50.
3.71 µM

====

# Target Or Test System: S. pyogenes SKKanGAS, kanamycin survival, BacTiterGlo, 6 h
# Test Summary: S. pyogenes SKKanGAS kanamycin growth inhibitors – SKKanGAS strain, luminescence, dose confirmation, streptokinase promoter inhibitor project, dose response (AID 1902);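 further: lower survival reflects blocked streptokinase promoter driving kanamycin resistance gene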
Calls of active or inactive are those of the source.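 Rule for the calls: active = EC50 no more than a set limit of log units above the highest dose; inactive = the rest.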
Outcome field: choose from 1 (yes) (active), 0 (no) (inactive)

Hi team, can someone confirm the assay call for O=[N+]([O-])c1ccc(/C=N/Nc2nc(-c3ccccc3)c3cc(Br)ccc3n2)o1 ?
1 (yes)

What do we get for Cc1cc(C)c2sc(NNC(=O)c3ccc(S(=O)(=O)N4CCc5ccccc5C4)cc3)nc2c1 ?
1 (yes)

What do we get for CCc1ccc(NC(=O)c2ccc(F)c(S(=O)(=O)NCC3COc4ccccc4O3)c2)cc1 (configuration not stated) ?
1 (yes)

What do we get for O=C(CSc1nnc(NC(=O)C2CC(=O)N(c3ccc(F)cc3)C2)s1)NCc1ccco1 (configuration not stated) ?
0 (no)

What do we get for CC1=NN(c2nc3ccccc3[nH]2)C(=O)C1Cc1ccccc1 (configuration not stated) ?
1 (yes)

====

# Target Or Test System: S. pyogenes SKKanGAS, kanamycin survival, BacTiterGlo, 6 h
# Test Summary: S. pyogenes SKKanGAS kanamycin growth inhibitors – SKKanGAS strain, luminescence, dose confirmation, streptokinase promoter inhibitor project, dose response (AID 1902);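 further: lower survival reflects blocked streptokinase promoter driving kanamycin resistance gene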
// EC50 lookup, one value per entry

# count of solved cases: 6
- O=C(N/N=C/c1ccccc1O)c1cccc2ccccc12: 3.08 µM
- O=C(Nc1ccccc1)c1nnsc1S(=O)c1ccc(Cl)cc1 (stereo unspecified): 1.34 µM
- CCCCNc1c(-c2ccc(OC)c(SC3CCCCC3)c2)nc2cnccn12: 3.62 µM
- CCc1ccc(/C=N/n2c(C3CCCCC3)n[nH]c2=S)cc1: 7.16 µM
- Cn1c(Oc2ccccc2NCc2cc(Br)ccc2O)cc(=O)n(C)c1=O: 4.46 µM
- O=C(Nc1nc2ccccc2n1CCOc1ccccc1)c1ccco1: 6.87 µM

Param item = C[C@H]1COc2c(C3(N)CC3)c(F)cc3c(=O)c(C(=O)O)cn1c23 ; retrieve measured EC50.
6.2 µM

What do we get for CC(C)c1ccc2[nH]c(O)c(N=NC(=O)c3cccc(S(=O)(=O)N4CCCCC4)c3)c2c1 ?
7.1 µM

What do we get for Cc1cc(C)cc(NC(=S)NCCSc2ccc(Cl)cc2)c1 ?
13.5 µM

What do we get for O=C1c2ccccc2C(=O)c2c1oc(C(F)(F)F)c2C(=O)c1ccccc1 ?
1.82 µM

What do we get for Cc1cccnc1Nc1nc(-c2ccccn2)cs1 ?
0.705 µM

Value source: PubChem BioAssay AID1902
